- Assayed target: Metabotropic glutamate receptor 8 (Rattus norvegicus) (UniProt P70579)
- Sequence (P70579 whole entry, looked up): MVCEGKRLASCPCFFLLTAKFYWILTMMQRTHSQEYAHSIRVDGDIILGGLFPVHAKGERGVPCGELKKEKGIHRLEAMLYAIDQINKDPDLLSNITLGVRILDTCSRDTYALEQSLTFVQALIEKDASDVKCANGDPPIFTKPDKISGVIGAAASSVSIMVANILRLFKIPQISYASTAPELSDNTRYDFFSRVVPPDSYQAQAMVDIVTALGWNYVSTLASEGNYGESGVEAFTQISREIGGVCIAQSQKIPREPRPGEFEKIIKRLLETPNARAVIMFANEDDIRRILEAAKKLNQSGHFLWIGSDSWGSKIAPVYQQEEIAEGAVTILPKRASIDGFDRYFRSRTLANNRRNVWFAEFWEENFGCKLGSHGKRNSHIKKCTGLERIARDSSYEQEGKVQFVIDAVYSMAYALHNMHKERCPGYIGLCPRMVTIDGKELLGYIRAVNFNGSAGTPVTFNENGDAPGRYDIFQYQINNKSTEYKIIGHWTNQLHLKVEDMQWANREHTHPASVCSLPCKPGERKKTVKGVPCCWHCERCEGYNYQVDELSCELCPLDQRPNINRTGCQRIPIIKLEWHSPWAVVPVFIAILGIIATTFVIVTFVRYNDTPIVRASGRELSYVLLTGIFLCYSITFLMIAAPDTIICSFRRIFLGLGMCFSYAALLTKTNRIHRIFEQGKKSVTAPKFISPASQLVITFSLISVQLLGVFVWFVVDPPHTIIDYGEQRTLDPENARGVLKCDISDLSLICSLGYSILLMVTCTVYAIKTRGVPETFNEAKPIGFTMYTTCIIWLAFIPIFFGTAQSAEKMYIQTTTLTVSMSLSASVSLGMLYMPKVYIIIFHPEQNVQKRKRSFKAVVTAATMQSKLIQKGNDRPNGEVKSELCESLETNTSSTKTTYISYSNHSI
- Test summary: mGluR8 Gi/Go-coupled signaling modulation – cell-based, rat, thallium flux, HTS, primary screen (AID 488969)
- Experimental setup: HEK293 rat mGluR8, GIRK (G protein-gated inwardly rectifying potassium channel) thallium flux, FluoZin2; at 10 µM; stronger effect = higher value; submaximal glutamate (EC20) added with thallium
Whole data set: some 110,000 compounds, median “z-score” near -0.1, cut for the highest 2% near 2. Many of the other results were omitted from the sample, so the highest values are more common in it than they were.
The reader will find reported z-score values listed item by item below.
Readout kind: z-score

* COc1ccc(OC)c(Nc2ccc(Nc3cc(OC)ccc3OC)nn2)c1 | -0.125
* O=C(N/N=C/C=C/c1ccc2c(c1)OCO2)c1ccc([N+](=O)[O-])cc1 | 0.0517
* Cc1nn(CC(=O)Nc2ccc(S(=O)(=O)N(C)C)cc2)c(C)c1[N+](=O)[O-] | -0.0283
* CCOc1ccc(CNc2ncnc(N)n2)cc1 | -0.398
* COc1ccc(S(=O)(=O)N2CCCCC2)cc1NC(=O)c1ccc2ccccc2n1 | -0.376
